Assay: ATG_EGR_CIS: Attagene CIS-FACTORIAL HepG2 Assay for human Early Growth Response 1 (EGR1) (AID 2282938)
Conditions: HepG2 Attagene CIS-FACTORIAL EGR reporter mRNA; actives raise or lower the signal
Experimental: ATG_CIS is a cell-based, multiplexed-readout assay that uses HepG2, a human liver cell line, with measurements taken at 24 hours after chemical dosing in a 24-well plate.ATG_EGR_CIS is one of 52 assay component(s) measured or calculated from the ATG_CIS assay. […] This assay endpoint, ATG_EGR_CIS, was analyzed with bidirectional fitting relative to DMSO as the negative control and baseline of activity. […]
Active and inactive are the calls of the source. The calls were made as follows: active = hit-call score of the fitted dose curve at least 0.9, where 1 is the maximum; inactive = score below 0.9.
Outcomes: true (1) for active, false (0) for inactive

# molecule, cat
data = [
    ("CCC(C)N (centres undefined)", "false (0)"),
    ("C=C(C)[C@@H]1CC=C(C)CC1", "false (0)"),
    ("C=CC(C)(O)CC/C=C(\\C)CC (centres undefined)", "false (0)"),
    ("Cc1cc(C)n(CO)n1", "false (0)"),
    ("O=C(O)c1ccc2c(c1)C(=O)OC2=O", "false (0)"),
    ("C=Cc1cccc(C)c1", "false (0)"),
    ("COc1ccc(C(=O)c2ccccc2)c(O)c1", "true (1)"),
    ("O=C(O)CCC(=O)O", "false (0)"),
    ("N=C1C=CC(=C(c2ccc(N)cc2)c2ccc(N)cc2)C=C1", "false (0)"),
    ("O=S(=O)(O)c1ccc(Nc2nc(Nc3ccc(C=Cc4ccc(Nc5nc(Nc6ccc(S(=O)(=O)O)cc6)nc(N(CCO)CCO)n5)cc4S(=O)(=O)O)c(S(=O)(=O)O)c3)nc(N(CCO)CCO)n2)cc1", "false (0)"),
    ("Clc1cc(Cl)c(Cl)c(Cl)c1Cl", "false (0)"),
    ("CC(=O)C(C)C", "false (0)"),
    ("CCN1CCCC1=O", "false (0)"),
    ("CCCCOCCOCCOC(C)=O", "false (0)"),
    ("C=CC(C)(CCC=C(C)C)OC(=O)C=Cc1ccccc1 (centres undefined)", "false (0)"),
    ("CC(Cl)COP(=O)(OCC(C)Cl)OCC(C)Cl (centres undefined)", "false (0)"),
    ("Nc1ccc(Cl)c(N)c1", "false (0)"),
    ("CC=C(C)C(C)=O", "false (0)"),
    ("COC(C=C(C)CCC=C(C)C)OC", "false (0)"),
    ("CN(C)c1ccc2nc3ccc(=[N+](C)C)cc-3sc2c1", "false (0)"),
    ("CC(=O)OC1CCCCC1C(C)(C)C (centres undefined)", "false (0)"),
    ("CC1(C)CC(O)CC(C)(C)N1[O]", "false (0)"),
    ("Cc1ccccc1CCO", "false (0)"),
    ("O=C(Oc1ccccc1)c1ccccc1C(=O)Oc1ccccc1", "false (0)"),
    ("CCC(C)(O)CCCC(C)C (centres undefined)", "false (0)"),
    ("O=C(OCc1ccccc1)c1ccc(O)cc1", "true (1)"),
    ("CC1=CC(C)C(C=O)CC1 (centres undefined)", "false (0)"),
    ("CCCSSCCC", "false (0)"),
    ("CCCc1ccc(O)c(OC)c1", "false (0)"),
]
